Value source: paper PMC5513037

- System Under Test: CSNK1A1 (Homo sapiens, UniProt P48729)
- Construct: endogenous in cells
- Sequence (P48729 whole entry): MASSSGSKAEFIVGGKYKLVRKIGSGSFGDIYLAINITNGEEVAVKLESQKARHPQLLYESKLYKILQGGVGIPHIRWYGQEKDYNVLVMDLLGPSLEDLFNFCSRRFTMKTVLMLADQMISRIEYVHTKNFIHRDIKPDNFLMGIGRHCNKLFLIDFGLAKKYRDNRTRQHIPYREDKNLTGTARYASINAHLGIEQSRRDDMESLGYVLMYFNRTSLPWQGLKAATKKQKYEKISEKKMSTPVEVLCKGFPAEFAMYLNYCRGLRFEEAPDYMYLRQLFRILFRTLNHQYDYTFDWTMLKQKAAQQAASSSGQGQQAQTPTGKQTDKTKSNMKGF
- Protocol Details: KAM-matrix competition in K562 lysate
- Test Settings: KAM 0.001-10 uM, read-out: RB50 (the source's name)
Reported Endpoint: IC50

Value of measured IC50 for the entry `N#CCc1ccc(Nc2nc(NCCCN)cc(Nc3cc(C4CC4)[nH]n3)n2)cc1` : > 10 µM

----------
- System Under Test: STK4 (Homo sapiens, UniProt Q13043)
- Construct: endogenous in cells; host or cells: K562
- Protocol Details: KAM-matrix competition in K562 lysate
- Assay type: binding
- Test Settings: read-out: RB50 (the source's name)
Reported Endpoint: pIC50
The scale used: pIC50 is minus the common logarithm of the concentration in molar units.

Value of measured pIC50 for the entry `N#CCc1ccc(Nc2nc(NCCCN)cc(Nc3cc(C4CC4)[nH]n3)n2)cc1` : 6.84

----------
- System Under Test: MARK3 (Homo sapiens, UniProt P27448)
- Construct: endogenous in cells
- Protocol Details: KAM-matrix competition in K562 lysate
- Test Settings: read-out: RB50 (the source's name)
Reported Endpoint: IC50 (nM)
Please respond with the number in nM and leave the unit unwritten.

Value of measured IC50 for the entry N#CCc1ccc(Nc2nc(NCCCN)cc(Nc3cc(C4CC4)[nH]n3)n2)cc1 [KAM] : 160

----------
- System Under Test: MAST3 (Homo sapiens, UniProt O60307)
- Construct: endogenous in cells
- Protocol Details: KAM-matrix competition in K562 lysate
- Test Settings: read-out: RB50 (the source's name)
Reported Endpoint: IC50

Value of measured IC50 for the entry `N#CCc1ccc(Nc2nc(NCCCN)cc(Nc3cc(C4CC4)[nH]n3)n2)cc1` : 784 nM

----------
- System Under Test: MAST4 (Homo sapiens)
- Construct: endogenous in cells; host or cells: K562
- Sequence (O15021 whole entry): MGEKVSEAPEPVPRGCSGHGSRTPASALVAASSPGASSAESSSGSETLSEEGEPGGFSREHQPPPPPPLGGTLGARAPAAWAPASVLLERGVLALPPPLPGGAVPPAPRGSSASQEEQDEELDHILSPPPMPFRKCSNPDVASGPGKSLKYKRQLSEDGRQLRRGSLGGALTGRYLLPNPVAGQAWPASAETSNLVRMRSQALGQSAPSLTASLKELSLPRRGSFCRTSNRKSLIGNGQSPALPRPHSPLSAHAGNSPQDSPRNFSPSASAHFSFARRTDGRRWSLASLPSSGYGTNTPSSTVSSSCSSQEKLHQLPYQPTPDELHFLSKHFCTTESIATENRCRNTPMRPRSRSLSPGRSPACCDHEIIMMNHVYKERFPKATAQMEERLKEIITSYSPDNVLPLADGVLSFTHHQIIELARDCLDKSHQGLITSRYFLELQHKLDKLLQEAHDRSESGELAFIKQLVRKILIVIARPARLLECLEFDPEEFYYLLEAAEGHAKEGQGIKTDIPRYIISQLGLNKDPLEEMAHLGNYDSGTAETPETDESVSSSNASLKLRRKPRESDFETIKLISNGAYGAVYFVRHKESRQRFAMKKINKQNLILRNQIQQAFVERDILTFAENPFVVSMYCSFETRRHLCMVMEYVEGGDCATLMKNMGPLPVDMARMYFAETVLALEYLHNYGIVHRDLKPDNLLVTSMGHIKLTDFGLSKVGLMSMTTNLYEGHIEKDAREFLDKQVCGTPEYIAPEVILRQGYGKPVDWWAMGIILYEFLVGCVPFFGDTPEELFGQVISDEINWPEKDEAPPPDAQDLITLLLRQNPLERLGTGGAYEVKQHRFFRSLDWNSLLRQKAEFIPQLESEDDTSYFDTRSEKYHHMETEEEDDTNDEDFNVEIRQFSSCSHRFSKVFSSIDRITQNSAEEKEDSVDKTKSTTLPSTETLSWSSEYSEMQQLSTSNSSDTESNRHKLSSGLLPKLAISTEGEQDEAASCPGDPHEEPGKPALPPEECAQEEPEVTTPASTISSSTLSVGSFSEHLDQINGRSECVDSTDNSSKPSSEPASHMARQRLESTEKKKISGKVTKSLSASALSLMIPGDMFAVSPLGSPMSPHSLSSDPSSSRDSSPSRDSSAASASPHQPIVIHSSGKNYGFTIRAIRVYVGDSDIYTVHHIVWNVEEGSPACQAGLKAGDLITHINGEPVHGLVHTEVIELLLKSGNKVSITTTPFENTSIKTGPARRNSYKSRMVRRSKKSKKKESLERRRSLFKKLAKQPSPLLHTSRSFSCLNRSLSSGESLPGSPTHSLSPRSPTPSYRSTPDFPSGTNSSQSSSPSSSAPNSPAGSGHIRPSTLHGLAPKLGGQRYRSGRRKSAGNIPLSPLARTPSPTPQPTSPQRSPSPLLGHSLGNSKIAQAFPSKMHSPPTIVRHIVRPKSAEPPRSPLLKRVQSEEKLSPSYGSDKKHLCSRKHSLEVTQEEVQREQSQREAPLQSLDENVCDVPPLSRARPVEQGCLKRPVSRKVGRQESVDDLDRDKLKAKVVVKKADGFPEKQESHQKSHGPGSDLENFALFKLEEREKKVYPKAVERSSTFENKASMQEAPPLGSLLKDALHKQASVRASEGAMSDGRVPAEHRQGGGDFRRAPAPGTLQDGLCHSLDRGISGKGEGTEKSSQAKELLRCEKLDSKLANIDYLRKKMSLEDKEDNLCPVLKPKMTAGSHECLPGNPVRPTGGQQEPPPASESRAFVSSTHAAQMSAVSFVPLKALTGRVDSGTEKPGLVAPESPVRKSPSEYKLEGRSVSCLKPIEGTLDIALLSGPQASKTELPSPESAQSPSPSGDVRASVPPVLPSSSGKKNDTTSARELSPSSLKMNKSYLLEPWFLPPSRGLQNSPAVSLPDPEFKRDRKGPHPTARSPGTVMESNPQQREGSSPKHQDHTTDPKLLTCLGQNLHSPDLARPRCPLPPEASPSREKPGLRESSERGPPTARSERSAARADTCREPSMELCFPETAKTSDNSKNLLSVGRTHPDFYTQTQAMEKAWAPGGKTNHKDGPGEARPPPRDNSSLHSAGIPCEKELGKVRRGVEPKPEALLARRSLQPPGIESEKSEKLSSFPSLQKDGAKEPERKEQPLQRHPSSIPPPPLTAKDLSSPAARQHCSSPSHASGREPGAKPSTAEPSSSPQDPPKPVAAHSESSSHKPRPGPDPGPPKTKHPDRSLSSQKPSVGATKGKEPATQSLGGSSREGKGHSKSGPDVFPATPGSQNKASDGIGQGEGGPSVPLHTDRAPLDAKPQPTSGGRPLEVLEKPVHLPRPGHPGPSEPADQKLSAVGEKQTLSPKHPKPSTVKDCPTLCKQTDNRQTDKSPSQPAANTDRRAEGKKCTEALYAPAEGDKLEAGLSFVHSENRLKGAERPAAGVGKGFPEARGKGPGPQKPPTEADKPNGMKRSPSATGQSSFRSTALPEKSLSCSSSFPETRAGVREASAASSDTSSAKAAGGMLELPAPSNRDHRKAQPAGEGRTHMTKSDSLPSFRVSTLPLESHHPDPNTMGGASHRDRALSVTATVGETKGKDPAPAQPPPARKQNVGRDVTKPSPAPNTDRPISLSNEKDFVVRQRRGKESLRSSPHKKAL
- Protocol Details: KAM-matrix competition in K562 lysate
- Assay type: binding
- Test Settings: read-out: RB50 (the source's name)
Reported Endpoint: IC50 (nM)
Please respond with the number in nM and leave the unit unwritten.

Value of measured IC50 for the entry `N#CCc1ccc(Nc2nc(NCCCN)cc(Nc3cc(C4CC4)[nH]n3)n2)cc1` : 1260

----------
- System Under Test: MASTL (Homo sapiens, UniProt Q96GX5)
- Construct: endogenous in cells; host or cells: K562 cell lysate
- Protocol Details: KAM-matrix competition in K562 lysate
- Format: binding
- Test Settings: read-out: RB50 (the source's name)
Reported Endpoint: pIC50
The scale used: pIC50 is minus the common logarithm of the concentration in molar units.

Value of measured pIC50 for the entry N#CCc1ccc(Nc2nc(NCCCN)cc(Nc3cc(C4CC4)[nH]n3)n2)cc1 [KAM] : 6.02

----------
- System Under Test: RPS6KA5 (Homo sapiens)
- Construct: endogenous in cells
- Protocol Details: KAM-matrix competition in K562 lysate
- Test Settings: read-out: RB50 (the source's name)
Reported Endpoint: pIC50
The scale used: pIC50 is minus the common logarithm of the concentration in molar units.

Value of measured pIC50 for the entry N#CCc1ccc(Nc2nc(NCCCN)cc(Nc3cc(C4CC4)[nH]n3)n2)cc1 [KAM] : 5.93

----------
- System Under Test: AAK1 (Homo sapiens, UniProt Q2M2I8)
- Construct: endogenous in cells
- Protocol Details: KAM-matrix competition in K562 lysate
- Test Settings: AAK1; KAM-based affinity matrix, K562 lysates; read-out: RB50 (the source's name)
Reported Endpoint: IC50 (nM)
Please respond with the number in nM and leave the unit unwritten.

Value of measured IC50 for the entry N#CCc1ccc(Nc2nc(NCCCN)cc(Nc3cc(C4CC4)[nH]n3)n2)cc1 [KAM] : 8

----------
- System Under Test: MTOR (Homo sapiens)
- Construct: endogenous in cells
- Protocol Details: KAM-matrix competition in K562 lysate
- Test Settings: KAM 0.001-10 uM, read-out: RB50 (the source's name)
pIC50: −log10 of the molar value.
Reported Endpoint: pIC50

Value of measured pIC50 for the entry `N#CCc1ccc(Nc2nc(NCCCN)cc(Nc3cc(C4CC4)[nH]n3)n2)cc1` : < 5.00

----------
- System Under Test: PAK2 (Homo sapiens, UniProt Q13177)
- Construct: endogenous in cells
- Sequence (Q13177 whole entry): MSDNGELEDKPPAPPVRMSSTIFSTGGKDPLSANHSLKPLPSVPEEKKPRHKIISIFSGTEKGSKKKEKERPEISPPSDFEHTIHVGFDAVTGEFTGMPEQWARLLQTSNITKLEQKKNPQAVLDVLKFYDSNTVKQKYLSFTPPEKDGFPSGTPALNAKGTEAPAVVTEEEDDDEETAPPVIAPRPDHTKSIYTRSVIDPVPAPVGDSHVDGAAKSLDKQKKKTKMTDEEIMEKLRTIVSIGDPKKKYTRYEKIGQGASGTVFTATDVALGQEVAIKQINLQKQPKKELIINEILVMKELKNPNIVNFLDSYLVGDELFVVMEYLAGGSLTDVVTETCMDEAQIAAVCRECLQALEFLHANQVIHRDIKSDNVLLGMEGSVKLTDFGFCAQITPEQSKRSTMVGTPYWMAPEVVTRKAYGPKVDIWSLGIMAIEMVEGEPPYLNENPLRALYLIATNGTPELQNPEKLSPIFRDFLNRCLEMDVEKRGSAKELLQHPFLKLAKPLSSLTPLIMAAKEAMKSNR
- Protocol Details: KAM-matrix competition in K562 lysate
- Test Settings: KAM 0.001-10 uM, read-out: RB50 (the source's name)
Reported Endpoint: IC50

Value of measured IC50 for the entry `N#CCc1ccc(Nc2nc(NCCCN)cc(Nc3cc(C4CC4)[nH]n3)n2)cc1` : > 10 µM

----------
- System Under Test: BMP2K (Homo sapiens)
- Construct: endogenous in cells
- Protocol Details: KAM-matrix competition in K562 lysate
- Test Settings: read-out: RB50 (the source's name)
Reported Endpoint: IC50

Value of measured IC50 for the entry N#CCc1ccc(Nc2nc(NCCCN)cc(Nc3cc(C4CC4)[nH]n3)n2)cc1 [KAM] : 16 nM

----------
- System Under Test: MARK2 (Homo sapiens, UniProt Q7KZI7)
- Construct: endogenous in cells; host or cells: K562
- Protocol Details: KAM-matrix competition in K562 lysate
- Assay type: binding
- Test Settings: read-out: RB50 (the source's name)
Reported Endpoint: pIC50
The scale used: pIC50 is minus the common logarithm of the concentration in molar units.

Value of measured pIC50 for the entry `N#CCc1ccc(Nc2nc(NCCCN)cc(Nc3cc(C4CC4)[nH]n3)n2)cc1` : 6.47

----------
- System Under Test: PEAK1 (Homo sapiens, UniProt Q9H792)
- Construct: endogenous in cells
- Protocol Details: KAM-matrix competition in K562 lysate
- Test Settings: KAM 0.001-10 uM, read-out: RB50 (the source's name)
pIC50: −log10 of the molar value.
Reported Endpoint: pIC50

Recorded pIC50 for N#CCc1ccc(Nc2nc(NCCCN)cc(Nc3cc(C4CC4)[nH]n3)n2)cc1 [KAM] on PEAK1 (Homo sapiens, UniProt Q9H792) was < 5.00

----------
- System Under Test: GAK (Homo sapiens, UniProt O14976)
- Construct: endogenous in cells
- Sequence (O14976 whole entry): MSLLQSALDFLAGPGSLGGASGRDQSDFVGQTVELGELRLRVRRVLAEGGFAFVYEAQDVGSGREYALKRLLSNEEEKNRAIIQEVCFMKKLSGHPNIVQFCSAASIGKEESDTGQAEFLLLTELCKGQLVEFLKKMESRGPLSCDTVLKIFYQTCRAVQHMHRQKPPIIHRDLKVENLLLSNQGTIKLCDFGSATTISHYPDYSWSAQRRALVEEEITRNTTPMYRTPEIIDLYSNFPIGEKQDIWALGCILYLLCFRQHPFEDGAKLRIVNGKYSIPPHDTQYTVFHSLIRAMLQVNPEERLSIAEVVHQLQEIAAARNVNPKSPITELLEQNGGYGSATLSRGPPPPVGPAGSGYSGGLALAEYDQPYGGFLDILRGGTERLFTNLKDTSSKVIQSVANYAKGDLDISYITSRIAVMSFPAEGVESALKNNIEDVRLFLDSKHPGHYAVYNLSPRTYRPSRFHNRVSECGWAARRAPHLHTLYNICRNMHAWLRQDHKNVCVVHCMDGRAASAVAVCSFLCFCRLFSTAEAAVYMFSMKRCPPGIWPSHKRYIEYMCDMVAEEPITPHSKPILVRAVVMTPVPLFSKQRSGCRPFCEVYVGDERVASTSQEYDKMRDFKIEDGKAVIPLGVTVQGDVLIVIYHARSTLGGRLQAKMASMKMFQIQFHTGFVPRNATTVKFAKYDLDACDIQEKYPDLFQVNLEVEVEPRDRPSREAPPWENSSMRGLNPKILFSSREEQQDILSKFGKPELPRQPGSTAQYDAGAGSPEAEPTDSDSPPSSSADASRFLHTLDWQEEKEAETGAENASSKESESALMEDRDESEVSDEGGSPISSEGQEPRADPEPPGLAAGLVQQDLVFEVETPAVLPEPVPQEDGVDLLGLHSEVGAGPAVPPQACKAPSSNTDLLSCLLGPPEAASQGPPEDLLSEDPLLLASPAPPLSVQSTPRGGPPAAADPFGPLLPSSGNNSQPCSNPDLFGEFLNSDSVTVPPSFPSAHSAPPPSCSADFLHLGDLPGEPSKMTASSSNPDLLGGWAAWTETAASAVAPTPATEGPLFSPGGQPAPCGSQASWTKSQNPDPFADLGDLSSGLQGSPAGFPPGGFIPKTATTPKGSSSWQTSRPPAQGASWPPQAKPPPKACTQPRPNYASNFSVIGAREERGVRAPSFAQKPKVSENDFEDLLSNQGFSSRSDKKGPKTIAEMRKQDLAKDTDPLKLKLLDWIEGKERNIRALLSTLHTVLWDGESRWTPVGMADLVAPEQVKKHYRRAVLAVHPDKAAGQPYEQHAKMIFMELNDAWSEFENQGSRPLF
- Protocol Details: KAM-matrix competition in K562 lysate
- Test Settings: read-out: RB50 (the source's name)
Reported Endpoint: pIC50
The scale used: pIC50 is minus the common logarithm of the concentration in molar units.

Recorded pIC50 for N#CCc1ccc(Nc2nc(NCCCN)cc(Nc3cc(C4CC4)[nH]n3)n2)cc1 [KAM] on GAK (Homo sapiens, UniProt O14976) was 6.37

----------
- System Under Test: MAP2K1 (Homo sapiens)
- Construct: endogenous in cells
- Protocol Details: KAM-matrix competition in K562 lysate
- Test Settings: read-out: RB50 (the source's name)
Reported Endpoint: pIC50
The scale used: pIC50 is minus the common logarithm of the concentration in molar units.

Value of measured pIC50 for the entry N#CCc1ccc(Nc2nc(NCCCN)cc(Nc3cc(C4CC4)[nH]n3)n2)cc1 [KAM] : 6.79

----------
- System Under Test: NME7 (Homo sapiens)
- Construct: endogenous in cells; host or cells: K562
- Sequence (Q9Y5B8 1-376): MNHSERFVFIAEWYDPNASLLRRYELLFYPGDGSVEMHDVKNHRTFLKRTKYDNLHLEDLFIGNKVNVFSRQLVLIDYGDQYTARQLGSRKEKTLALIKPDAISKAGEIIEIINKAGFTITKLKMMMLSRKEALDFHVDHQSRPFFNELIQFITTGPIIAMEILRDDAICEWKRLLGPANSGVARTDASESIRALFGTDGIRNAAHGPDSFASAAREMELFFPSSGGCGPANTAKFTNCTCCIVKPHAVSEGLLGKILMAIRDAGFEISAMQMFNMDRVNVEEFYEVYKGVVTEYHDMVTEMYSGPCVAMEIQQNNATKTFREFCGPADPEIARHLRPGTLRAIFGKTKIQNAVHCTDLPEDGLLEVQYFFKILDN
- Protocol Details: KAM-matrix competition in K562 lysate
- Type: binding
- Test Settings: KAM 0.001-10 uM, read-out: RB50 (the source's name)
pIC50: −log10 of the molar value.
Reported Endpoint: pIC50

Value of measured pIC50 for the entry N#CCc1ccc(Nc2nc(NCCCN)cc(Nc3cc(C4CC4)[nH]n3)n2)cc1 [KAM] : < 5.00

----------
- System Under Test: ROCK1 (Homo sapiens)
- Construct: endogenous in cells
- Protocol Details: KAM-matrix competition in K562 lysate
- Test Settings: KAM 0.001-10 uM, read-out: RB50 (the source's name)
- Procedure: Supplement 12953_2017_125_MOESM1_ESM.zip/MS_Supp Info.xlsx, sheet "KAM" | column: 10 uM KAM; 1 uM KAM; 0.1 uM KAM; 0.01 uM KAM; 0.001 uM KAM; RB50
pIC50: −log10 of the molar value.
Reported Endpoint: pIC50

Value of measured pIC50 for the entry N#CCc1ccc(Nc2nc(NCCCN)cc(Nc3cc(C4CC4)[nH]n3)n2)cc1 [KAM] : < 5.00
